Data credit: paper PMC3608651

TEST TARGET: HLA-B*58:01 (Homo sapiens, UniProt P01889, A329T/C349S/D201E/D98Y/E176V/E187L/E204Q/E69T/G107R/I218V/I90N/K202T/L105A/L119I/N104I/N87E/Q89R/Q94S/R106L/R155S/R180L/R86G/S101N/S121R/S35A/S48A/T118I/V127L/V306I/V36M/Y140S/Y91M)
Format: binding
EXPERIMENTAL PARAMETERS: percent relative the binding of positive control peptide […]; duplicated experiments; positive binder >40%
Bind B*58:01 by entry:
ATTRIBUTE MEASURED: Bind B*58:01 (%)

| SEQ TEXT | UNITS | ASSAY VALUE |
| --- | --- | --- |
| VRAYHAMSS [Rv0288_66–74] | % | 10 |
| HAMSSTHEA [Rv0288_70–78] | % | 16 |
| PVGGQSSFY | % | 0 |
| AQLNAMKGD | % | 0 |

---

TEST TARGET: HLA-A*02:01 (Homo sapiens, UniProt P04439, D140Y/D185E/D98H/E176V/E277Q/G131W/G231S/I119V/I121R/I166T/I218V/L300P/L318F/N151K/N90K/P208A/P217A/Q86G/Q94H/R138H/R169H/T345S)
Assay type: binding
EXPERIMENTAL PARAMETERS: percent relative the binding of positive control peptide […]; plate-bound monomer 0.5 µg/ml; duplicated experiments; positive binder >40%
Given measured Bind A*02:01, output 1.0 if it is greater than or equal to 30% and 0.0 if not.

| SEQ TEXT | LABEL CLASS |
| --- | --- |
| SPAVYLLDG | 0.0 |
| AAGGHNAVF | 1.0 |
| GSAAIGLSM | 1.0 |
| TLQNLGAEI [Rv0288_24–32m1] | 0.0 |
| GWDINTPAF | 0.0 |
| SAAIGLSMA | 1.0 |
| WGAQLNAMK | 0.0 |

---

Bind A*30:01 by entry:
TEST TARGET: HLA-A*30:01 (Homo sapiens, UniProt P04439, D140H/D185E/E176W/F33S/G80R/H175R/K168Q/R138E/R41S)
Assay type: binding
EXPERIMENTAL PARAMETERS: percent relative the binding of positive control peptide […]; duplicated experiments; positive binder >40%
ATTRIBUTE MEASURED: Bind A*30:01 (%)

| SUBSTANCE | ATTRIBUTE MEASURED | ASSAY VALUE |
| --- | --- | --- |
| SSFYSDWYS | Bind A*30:01 | 0 |
| TSELPQW LS | Bind A*30:01 | 0 |
| ALLDPSQGM | Bind A*30:01 | 5 |
| GWDINTPAF | Bind A*30:01 | 11 |
| NTPAFEWYY | Bind A*30:01 | 6 |
| GNNSPAVYL | Bind A*30:01 | 0 |
| VKPTGSAAI | Bind A*30:01 | 0 |
| KAADMW GPS | Bind A*30:01 | 1 |
| YHPQQFIYA | Bind A*30:01 | 3 |
| LDPSQGMGP | Bind A*30:01 | 32 |
| LSIVMPVGG | Bind A*30:01 | 0 |
| YAGSLSALL | Bind A*30:01 | 0 |
| NAAGGHNAV | Bind A*30:01 | 27 |
| GANIPAEFL | Bind A*30:01 | 0 |

---

TEST TARGET: HLA-C*07:01 (Homo sapiens, UniProt P10321, K90N/S123Y)
Format: binding
EXPERIMENTAL PARAMETERS: percent relative the binding of positive control peptide […]; duplicated experiments; positive binder >40%
ATTRIBUTE MEASURED: Bind C*07:01 (%)

| SUBSTANCE | TEST TARGET | ATTRIBUTE MEASURED | ASSAY VALUE |
| --- | --- | --- | --- |
| SLSALLDPS | HLA-C*07:01 (Homo sapiens, UniProt P10321, K90N/S123Y) | Bind C*07:01 | 11 |
| ELGGANIPA | HLA-C*07:01 (Homo sapiens, UniProt P10321, K90N/S123Y) | Bind C*07:01 | 0 |
| GKAGCQTYK | HLA-C*07:01 (Homo sapiens, UniProt P10321, K90N/S123Y) | Bind C*07:01 | 0 |
| EQAALQSAW [Rv0288_35–43] | HLA-C*07:01 (Homo sapiens, UniProt P10321, K90N/S123Y) | Bind C*07:01 | 0 |
| PSSDPAW ER | HLA-C*07:01 (Homo sapiens, UniProt P10321, K90N/S123Y) | Bind C*07:01 | 18 |
| GLSMAGSSA | HLA-C*07:01 (Homo sapiens, UniProt P10321, K90N/S123Y) | Bind C*07:01 | 0 |
| YQSGLSIVM | HLA-C*07:01 (Homo sapiens, UniProt P10321, K90N/S123Y) | Bind C*07:01 | 68 |
| QSGLSIVMP | HLA-C*07:01 (Homo sapiens, UniProt P10321, K90N/S123Y) | Bind C*07:01 | 43 |
| AEFLENFVR | HLA-C*07:01 (Homo sapiens, UniProt P10321, K90N/S123Y) | Bind C*07:01 | 13 |
| SALLDPSQG | HLA-C*07:01 (Homo sapiens, UniProt P10321, K90N/S123Y) | Bind C*07:01 | 9 |
| QT YKWETFL | HLA-C*07:01 (Homo sapiens, UniProt P10321, K90N/S123Y) | Bind C*07:01 | 15 |
| MSQIMYNYP [Rv0288_1–9] | HLA-C*07:01 (Homo sapiens, UniProt P10321, K90N/S123Y) | Bind C*07:01 | 10 |
| NGW DINTPA | HLA-C*07:01 (Homo sapiens, UniProt P10321, K90N/S123Y) | Bind C*07:01 | 14 |
| QQFIYAGSL | HLA-C*07:01 (Homo sapiens, UniProt P10321, K90N/S123Y) | Bind C*07:01 | 27 |
| VRSSNLKFQ | HLA-C*07:01 (Homo sapiens, UniProt P10321, K90N/S123Y) | Bind C*07:01 | 61 |
| NAVFNFPPN | HLA-C*07:01 (Homo sapiens, UniProt P10321, K90N/S123Y) | Bind C*07:01 | 2 |
| SQGMGPSLI | HLA-C*07:01 (Homo sapiens, UniProt P10321, K90N/S123Y) | Bind C*07:01 | 22 |
| WVYCGNGTP | HLA-C*07:01 (Homo sapiens, UniProt P10321, K90N/S123Y) | Bind C*07:01 | 16 |
| LTSELPQW L | HLA-C*07:01 (Homo sapiens, UniProt P10321, K90N/S123Y) | Bind C*07:01 | 2 |
| GWDINTPAF | HLA-C*07:01 (Homo sapiens, UniProt P10321, K90N/S123Y) | Bind C*07:01 | 10 |
| RAYHAMSST [Rv0288_67–75wt] | HLA-C*07:01 (Homo sapiens, UniProt P10321, K90N/S123Y) | Bind C*07:01 | 35 |
| YNYPTMLDH [Rv0288_6–14m3] | HLA-C*07:01 (Homo sapiens, UniProt P10321, K90N/S123Y) | Bind C*07:01 | 0 |
| VQFQSGGNN | HLA-C*07:01 (Homo sapiens, UniProt P10321, K90N/S123Y) | Bind C*07:01 | 0 |
| AVFNFPPNG | HLA-C*07:01 (Homo sapiens, UniProt P10321, K90N/S123Y) | Bind C*07:01 | 1 |
| VKPTGSAAI | HLA-C*07:01 (Homo sapiens, UniProt P10321, K90N/S123Y) | Bind C*07:01 | 0 |
| SSTHEANTM [Rv0288_73–81] | HLA-C*07:01 (Homo sapiens, UniProt P10321, K90N/S123Y) | Bind C*07:01 | 7 |
| ANTMAMMAR [Rv0288_78–86] | HLA-C*07:01 (Homo sapiens, UniProt P10321, K90N/S123Y) | Bind C*07:01 | 12 |
| SMAGSSAMI | HLA-C*07:01 (Homo sapiens, UniProt P10321, K90N/S123Y) | Bind C*07:01 | 0 |
| VRAYHSMSS [Rv0288_66–74m1] | HLA-C*07:01 (Homo sapiens, UniProt P10321, K90N/S123Y) | Bind C*07:01 | 3 |
| GGHNAVFNF | HLA-C*07:01 (Homo sapiens, UniProt P10321, K90N/S123Y) | Bind C*07:01 | 22 |
| GPSLIGLAM | HLA-C*07:01 (Homo sapiens, UniProt P10321, K90N/S123Y) | Bind C*07:01 | 0 |
| DW YSPACGK | HLA-C*07:01 (Homo sapiens, UniProt P10321, K90N/S123Y) | Bind C*07:01 | 0 |
| ANNTRLWVY | HLA-C*07:01 (Homo sapiens, UniProt P10321, K90N/S123Y) | Bind C*07:01 | 113 |
| ETFLTSELP | HLA-C*07:01 (Homo sapiens, UniProt P10321, K90N/S123Y) | Bind C*07:01 | 0 |
| TMAMMARDT [Rv0288_80–88] | HLA-C*07:01 (Homo sapiens, UniProt P10321, K90N/S123Y) | Bind C*07:01 | 0 |
| KGDLQSSLG | HLA-C*07:01 (Homo sapiens, UniProt P10321, K90N/S123Y) | Bind C*07:01 | 25 |
| YWGAQLNAM | HLA-C*07:01 (Homo sapiens, UniProt P10321, K90N/S123Y) | Bind C*07:01 | 0 |
| GGYKAADMW | HLA-C*07:01 (Homo sapiens, UniProt P10321, K90N/S123Y) | Bind C*07:01 | 0 |
| NNSPAVYLL | HLA-C*07:01 (Homo sapiens, UniProt P10321, K90N/S123Y) | Bind C*07:01 | 70 |
| IMYNYPAML [Rv0288_4–12] | HLA-C*07:01 (Homo sapiens, UniProt P10321, K90N/S123Y) | Bind C*07:01 | 67 |
| SFYSDW YSP | HLA-C*07:01 (Homo sapiens, UniProt P10321, K90N/S123Y) | Bind C*07:01 | 0 |
| SAWQGDTGI [Rv0288_41–49] | HLA-C*07:01 (Homo sapiens, UniProt P10321, K90N/S123Y) | Bind C*07:01 | 12 |
| SAAIGLSMA | HLA-C*07:01 (Homo sapiens, UniProt P10321, K90N/S123Y) | Bind C*07:01 | 0 |
| NTPAFEWYY | HLA-C*07:01 (Homo sapiens, UniProt P10321, K90N/S123Y) | Bind C*07:01 | 48 |
| TYQAWQAQW [Rv0288_50–58] | HLA-C*07:01 (Homo sapiens, UniProt P10321, K90N/S123Y) | Bind C*07:01 | 0 |
| SNLKFQDAY | HLA-C*07:01 (Homo sapiens, UniProt P10321, K90N/S123Y) | Bind C*07:01 | 52 |
| SGLSIVMPV | HLA-C*07:01 (Homo sapiens, UniProt P10321, K90N/S123Y) | Bind C*07:01 | 0 |
| LSIVMPVGG | HLA-C*07:01 (Homo sapiens, UniProt P10321, K90N/S123Y) | Bind C*07:01 | 0 |
| IVMPVGGQS | HLA-C*07:01 (Homo sapiens, UniProt P10321, K90N/S123Y) | Bind C*07:01 | 0 |
| KPTGSAAIG | HLA-C*07:01 (Homo sapiens, UniProt P10321, K90N/S123Y) | Bind C*07:01 | 0 |
| KFQDAYNAA | HLA-C*07:01 (Homo sapiens, UniProt P10321, K90N/S123Y) | Bind C*07:01 | 0 |
| GGANIPAEF | HLA-C*07:01 (Homo sapiens, UniProt P10321, K90N/S123Y) | Bind C*07:01 | 5 |
| GNNSPAVYL | HLA-C*07:01 (Homo sapiens, UniProt P10321, K90N/S123Y) | Bind C*07:01 | 51 |
| DGLRAQDDY | HLA-C*07:01 (Homo sapiens, UniProt P10321, K90N/S123Y) | Bind C*07:01 | 0 |
| YYQSGLSIV | HLA-C*07:01 (Homo sapiens, UniProt P10321, K90N/S123Y) | Bind C*07:01 | 25 |
| SSNLKFQDA | HLA-C*07:01 (Homo sapiens, UniProt P10321, K90N/S123Y) | Bind C*07:01 | 10 |
| VFNFPPNGT | HLA-C*07:01 (Homo sapiens, UniProt P10321, K90N/S123Y) | Bind C*07:01 | 0 |
| VYCGNGTPN | HLA-C*07:01 (Homo sapiens, UniProt P10321, K90N/S123Y) | Bind C*07:01 | 59 |
| YLLDGLRAQ | HLA-C*07:01 (Homo sapiens, UniProt P10321, K90N/S123Y) | Bind C*07:01 | 0 |
| LVANNT RLW | HLA-C*07:01 (Homo sapiens, UniProt P10321, K90N/S123Y) | Bind C*07:01 | 26 |
| MILAAYHPQ | HLA-C*07:01 (Homo sapiens, UniProt P10321, K90N/S123Y) | Bind C*07:01 | 4 |
